Test system: HOP-92 NSCLC
Assay: NCI-60 one-dose screen, 48 h
Settings: 10 µM unless noted
This is part of a sample that, as a whole, favours compounds with a hit. Of some 83,000 tested, about 20% had one in any assay. Activity calls are given as the source filed them. How the source made its calls: active means growth percent below 10; inactive means the rest.
Outcome codes: yes (1) (active), no (0) (inactive)

[[record]]
molecularstring = "Cc1c(C)c(N)c(C)c(C)c1N"
cat = "no (0)"

[[record]]
molecularstring = "c1ccc2c(c1)O[As](O[As]1Oc3ccccc3O1)O2"
cat = "yes (1)"

[[record]]
molecularstring = "O=[N+]([O-])c1cc(Br)c(O)c(Br)c1"
cat = "no (0)"

[[record]]
molecularstring = "CC1=C(C)C(=O)O[C@@H]([C@](C)(O)[C@]2(O)CC[C@@]3(O)[C@@H]4C[C@H]5O[C@]56CC=CC(=O)[C@]6(C)[C@H]4CC[C@]23C)C1"
cat = "no (0)"

[[record]]
molecularstring = "N#CC(C#N)=Cc1cccc(F)c1"
cat = "no (0)"

[[record]]
molecularstring = "CN1CCN(c2ccc(Cl)cc2)CC1"
cat = "no (0)"


Values compiled from PubChem BioAssay (NCI).
